For each record, write down the corresponding Decrease (%) in serum trigly-ceride.
# Test system: male SD rats
# PROCEDURE_DETAILS: Hypolipidemic activity (serum cholesterol and serum triglyceride in rats fed diet containing test compound)
# Type: in vivo
# CONDITION_PARAMETERS: test compound 50 mg % in diet, ad libitum for one week, group of 5
Give your result in % as a bare value.

## Input Give Decrease (%) in serum trigly-ceride; test system male SD rats; compound CC(C(=O)O)c1nc(-c2ccc(Cl)cc2)oc1-c1ccco1 (centres unmarked)
## Output 34

## Input Print male SD rats Decrease (%) in serum trigly-ceride for CC(C)(C(=O)O)c1nc(-c2ccc(Cl)cc2)oc1-c1ccco1 .
## Output 54

## Input State, for male SD rats, measured Decrease (%) in serum trigly-ceride of the compound listed here: CCOC(=O)C(C)c1nc(-c2ccc(Cl)cc2)oc1-c1ccco1 (centres unmarked)
## Output 22

## Input Output reported Decrease (%) in serum trigly-ceride of the compound CCOC(=O)C(C)c1nc(-c2ccc(Cl)cc2)oc1-c1ccoc1 (centres unmarked) on male SD rats.
## Output 45

## Input Report Decrease (%) in serum trigly-ceride from male SD rats testing of CCOC(=O)C(C)(C)Oc1ccc(Cl)cc1 [Clofibrate, reference compound]
## Output 16
